The following are reported IC50 results, target or system c-Kit (Homo sapiens, UniProt P10721).
State just the number; it will be interpreted in µM.

| compound smiles | unit spec | IC50 |
| --- | --- | --- |
| O=c1cc(-c2ccc(O)c(O)c2)oc2cc(O)cc(O)c12 | µM | 1 |
| O=c1cc(-c2ccc(O)cc2)oc2cc(O)cc(O)c12 | µM | 4.7 |

Could you now look at the following compound, please?
Return IC50 (reported value) for this compound: `COc1ccc(-c2cc(=O)c3c(O)cc(O)cc3o2)cc1`
13.3
